Experiment: Example 6 study: pharmacokinetics
Conditions: human, in vivo, oral; one patient (FIG. 13)
Recorded endpoint: Cmax (ng/mL)
Numeric answer only, unit ng/mL assumed.

QUERY: Reported Cmax, compound `O=c1[nH]c(=O)c(Cc2cccc(C(F)(F)F)c2)c([C@H]2CC[C@H](c3ccccc3)CC2)[nH]1` : ____
RESULT: 404

---

Test: Example 6 study: pharmacokinetics
Settings: human, in vivo, oral; one patient (FIG. 13)
Recorded endpoint: AUC (ng·h/mL)
// return numeric value only (unit: ng·h/mL, not printed)

QUERY: AUC for `O=c1[nH]c(=O)c(Cc2cccc(C(F)(F)F)c2)c([C@H]2CC[C@H](c3ccccc3)CC2)[nH]1` ?
RESULT: 5900
